- Target under test: Aldehyde dehydrogenase, mitochondrial (Homo sapiens) (UniProt P05091)
- Assay name: qHTS for Inhibitors of the Aldehyde Dehydrogenase Family (ALDH2) Primary screen (AID 2061308);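 note: plate controls were vehicle for no effect and reference inhibitor for full effect; nearly all actives have a fitted effect of over 55% in size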
- Measurement context: ALDH2 enzyme inhibition qHTS, 1536-well; series mostly up to 56 µM
Records with an inconclusive call do not appear. Active and inactive are the calls of the source. Calls come from the whole dose curve; as a rule, active = well fitted inhibition curve with a large enough effect; inconclusive = small, poorly fitted or top-dose-only effect; inactive = flat fitted curve, though single readings scatter.
Measured parameter: activity change, negative = inhibition

{"Compound": "Cn1nc(C(C)(C)C)cc1C(=O)NC(Cc1cccc(Cl)c1)C(=O)NCC#N (configuration not stated)", "Observed measurement": "inactive"}
{"Compound": "CC1(C)CC[C@]2(C(=O)O[C@@H]3O[C@H](CO[C@@H]4O[C@H](CO)[C@@H](O)[C@H](O)[C@H]4O)[C@@H](O)[C@H](O[C@@H]4O[C@H](CO)[C@@H](O)[C@H](O)[C@H]4O)[C@H]3O)[C@H](O)C[C@]3(C)C(=CCC4[C@@]5(C)CC[C@H](O[C@@H]6OC[C@@H](O)[C@H](O)[C@H]6O)[C@@](C)(C(=O)O)C5CC[C@]43C)[C@@H]2C1 (some centres not stated)", "Observed measurement": "inactive"}

----------
- Target under test: Cellular tumor antigen p53 (Homo sapiens)
- Assay name: Primary qHTS for small molecule compounds that upregulate eGFP-tagged delta133p53alpha (in N-terminal) cells. (AID 2060322);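 note: cells pre-induced with doxycycline then dosed without doxycycline; 0% = DMSO vehicle and 100% = reference activator; nearly all actives have a fitted effect of over 75% in size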
- Measurement context: NCI-H358 eGFP-delta133p53alpha fluorescence, 24 h; stronger effect = higher value
Results filed as inconclusive are left out.
Measured parameter: activation (%)
Record the value in %, omitting the unit from your answer.

Here are 5 compounds together with their reported answers.
{"Compound": "CS(=O)(=O)N(Cc1ccco1)CC(O)Cn1c2ccccc2c2ccccc21 (stereo unspecified)", "activation / %": -2.66}
{"Compound": "COC(=O)[C@@H](O)[C@H]1[C@@]2(C)CC3(O)[C@@H](C(=O)[C@H]2O)[C@]24O[C@]25CC(=O)O[C@@H](c2ccoc2)[C@]5(C)CCC4[C@]13C (stereo partly specified)", "activation / %": -13}
{"Compound": "CC(N)(Cc1ccc(O)c(O)c1)C(=O)O (stereo unspecified)", "activation / %": -16.9}
{"Compound": "COc1ccc(/C=C\\C(=O)O)c(O[C@@H]2O[C@H](CO)[C@@H](O)[C@H](O)[C@H]2O)c1", "activation / %": -7.63}
{"Compound": "CCCC(Nc1nc(-c2ccc(NC(=O)NCC)c(OC)c2)ncc1C)c1cccnc1 (stereo unspecified)", "activation / %": -2.86}

Kindly consider the entry below.
Prompt: Would you kindly share the measured activation for CC(=O)OC1CC2C(C)(C)C(=O)C=CC2(C)C2CC(=O)C3=C(CCC3C3=CC(O)OC3=O)C12C (stereo unspecified) ?
Completion: -12.2

----------
- Target under test: Cellular tumor antigen p53 (Homo sapiens) (UniProt P04637)
- Sequence (P04637 whole entry, looked up): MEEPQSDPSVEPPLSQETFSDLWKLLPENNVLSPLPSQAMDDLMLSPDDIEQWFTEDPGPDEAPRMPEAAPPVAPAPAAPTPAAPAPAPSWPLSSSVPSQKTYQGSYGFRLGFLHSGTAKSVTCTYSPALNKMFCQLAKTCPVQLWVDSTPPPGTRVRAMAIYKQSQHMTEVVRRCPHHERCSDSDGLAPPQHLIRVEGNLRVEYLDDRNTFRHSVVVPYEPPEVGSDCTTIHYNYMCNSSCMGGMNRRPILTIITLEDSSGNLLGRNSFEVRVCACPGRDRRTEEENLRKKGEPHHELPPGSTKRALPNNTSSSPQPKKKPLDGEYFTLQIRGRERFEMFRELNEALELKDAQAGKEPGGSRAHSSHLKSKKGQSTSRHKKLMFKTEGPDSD
- Assay name: Primary qHTS for small molecule compounds that upregulate eGFP-tagged delta133p53alpha (in N-terminal) cells. (AID 2060322);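 note: cells pre-induced with doxycycline then dosed without doxycycline; 0% = DMSO vehicle and 100% = reference activator; nearly all actives have a fitted effect of over 75% in size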
- Measurement context: NCI-H358 eGFP-delta133p53alpha fluorescence, 24 h; stronger effect = higher value
- Excerpt: Assay Development and Screening Technology National Center for Advancing Translational Sciences (NCATS), National Institute of Health (NIH), Rockville, Maryland Cellular senescence (CS) is one of the hallmarks of aging and age-related diseases. […] Here we report the development and validation of a cell-based quantitative high throughput screening (qHTS) assay in 1,536-well format. […]
Inconclusive results are not listed.
Measured parameter: activation (%)
Record the value in %, omitting the unit from your answer.

Here are 4 compounds together with their reported answers.
{"Compound": "Cc1cc(Nc2nc(NC(C)c3ncc(F)cn3)ncc2Cl)n[nH]1 (centres undefined)", "Unit descriptor": "%", "Observed measurement": 8.04}
{"Compound": "COc1ccc2c(c1)OC[C@]1(O)c3cc4c(cc3O[C@H]21)OCO4", "Unit descriptor": "%", "Observed measurement": -2.68}
{"Compound": "C=CC(C)(O)C1CC2C3(C)CCCC(C)(C)C3C(O)C(O)C2(C)O1 (centres undefined)", "Unit descriptor": "%", "Observed measurement": -9.82}
{"Compound": "Oc1ccc(CCNCCCCCCNCCc2ccccc2)cc1O", "Unit descriptor": "%", "Observed measurement": 0}

Prompt: Would you kindly share the measured activation for COc1ccc(/C=C/c2nc(NCCCN(C)C)c3ccccc3n2)cc1 ?
Completion: -29.6

Prompt: Now give it for C#CCCCn1cc(-c2cccc3c2N[C@@H](C)CC(=O)N3)cn1 too.
Completion: -18.8

----------
- Target under test: Cellular tumor antigen p53 (Homo sapiens) (UniProt P04637)
- Assay name: Primary qHTS for small molecule compounds that upregulate eGFP-tagged delta133p53alpha (in N-terminal) cells. (AID 2060322);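 note: cells pre-induced with doxycycline then dosed without doxycycline; 0% = DMSO vehicle and 100% = reference activator; nearly all actives have a fitted effect of over 75% in size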
- Measurement context: NCI-H358 eGFP-delta133p53alpha fluorescence, 24 h; stronger effect = higher value
Results filed as inconclusive are left out.
Parameter: activation. Scope: all listed entries.
Record the value in %, omitting the unit from your answer.

Here are 6 molecules together with their reported answers.
{"Molecule": "O=C1Nc2ccccc2C(O)(c2ccccc2)C1O (centres undefined)", "Measured parameter": "activation", "Observed measurement": 0.763}
{"Molecule": "CC(=O)OC1CC(C)C2(CCC3(CC(=O)OC3O)O2)C2(C)CCCC(C)(C)C12 (centres undefined)", "Measured parameter": "activation", "Observed measurement": 22.3}
{"Molecule": "COc1cc2ncnc(Nc3cccc(Br)c3)c2cc1OC", "Measured parameter": "activation", "Observed measurement": 29.9}
{"Molecule": "O=C(O)c1ccc2cc(-c3ccc(O)c(C45CC6CC(CC(C6)C4)C5)c3)ccc2c1", "Measured parameter": "activation", "Observed measurement": -20.4}
{"Molecule": "COc1cc(O)c2c(c1)C1=CC(O)C(O)CC1(C)OC2=O (centres undefined)", "Measured parameter": "activation", "Observed measurement": 2.29}
{"Molecule": "CC(C)(O)c1ccc2c(c1)ncn2-c1cccc(-c2ccccc2C#N)c1", "Measured parameter": "activation", "Observed measurement": -12.4}

Prompt: Would you kindly share the measured activation for Cc1nc(C2CCCCC2)c(-c2ccc(S(N)(=O)=O)c(F)c2)o1 ?
Completion: 19.2

Prompt: Now give it for C=C1C(=CC=C2CCCC3(C)[C@@H]([C@H](C)C=CC=CC(O)(CC)CC)CC[C@@H]23)C[C@@H](O)C[C@@H]1O (some centres undefined) too.
Completion: -6.37

Prompt: Now give it for COC1(CC(C)C)NC(=O)C(O)(Cc2ccccc2)NC1=O (centres undefined) too.
Completion: -16.8

Prompt: Now give it for Nc1nc2[nH]c(=O)cnc2c(=O)[nH]1 too.
Completion: -25.1

Prompt: Now give it for Cc1nc(N2CCN(C(=O)c3ccco3)CC2)c2c3c(sc2n1)CCCC3 too.
Completion: -12.9

Prompt: Now give it for Nc1ncnc2c1c(COc1cccc(Cl)c1)nn2C1CCOCC1 too.
Completion: 15.2

Prompt: Now give it for Cn1c(CO)c(-c2ccccc2)c2cc([N+](=O)[O-])ccc21 too.
Completion: -4.77

Prompt: Now give it for CC1(C)CC[C@]2(C(=O)O[C@@H]3O[C@H](CO)[C@@H](O)[C@H](O)[C@H]3O)CC[C@]3(C)C(=CCC4[C@@]5(C)C[C@@H](O)[C@H](O)[C@](C)(C(=O)O)C5CC[C@]43C)C2C1O (some centres undefined) too.
Completion: -2.68

Prompt: Now give it for CC1CCC2(NC1)OC1C(O)C3C4CCC5CC(O[C@@H]6O[C@H](CO)[C@@H](O)[C@H](O)[C@H]6O[C@@H]6O[C@@H](C)[C@H](O)[C@@H](O)[C@H]6O)CCC5(C)C4CCC3(C)C1C2C (some centres undefined) too.
Completion: -15.3

Prompt: Now give it for Nc1ccc2cc3ccc(N)cc3nc2c1 too.
Completion: -35.1

Prompt: Now give it for Cc1c2cc(c(C(=O)O)c1C)OC1OC(C(O)C(O)C1O)C(O)C(O)C1OC(O2)C(O)C(O)C1O (centres undefined) too.
Completion: -5.34

Prompt: Now give it for CC1(C)CC[C@]2(C(=O)O[C@@H]3O[C@H](CO)[C@@H](O)[C@H](O)[C@H]3O)CC[C@]3(C)C(=CCC4[C@@]5(C)C[C@@H](O)[C@H](O)C(C)(C)C5CC[C@]43C)C2[C@@H]1O (some centres undefined) too.
Completion: -8.04

Prompt: Now give it for Oc1cc(O)cc(C=Cc2ccc(O)c(O)c2)c1 too.
Completion: 8.33

----------
- Target under test: Cellular tumor antigen p53 (Homo sapiens) (UniProt P04637)
- Assay name: Primary qHTS for small molecule compounds that upregulate eGFP-tagged delta133p53alpha (in N-terminal) cells. (AID 2060322);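 note: cells pre-induced with doxycycline then dosed without doxycycline; 0% = DMSO vehicle and 100% = reference activator; nearly all actives have a fitted effect of over 75% in size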
- Measurement context: NCI-H358 eGFP-delta133p53alpha fluorescence, 24 h; stronger effect = higher value
Results filed as inconclusive are left out.
Measured parameter: activation (%)
Record the value in %, omitting the unit from your answer.

Prompt: Would you kindly share the measured activation for CN1CCN(c2ccc(OC(F)(F)F)c(Nc3ncc4c(n3)-c3c(c(C(N)=O)nn3CCO)CC4)c2)CC1 ?
Completion: 85.7

Prompt: Now give it for COC(=O)c1ccccc1O[C@@H]1O[C@H](CO[C@@H]2OC[C@@H](O)[C@H](O)[C@H]2O)[C@@H](O)[C@H](O)[C@H]1O too.
Completion: -12.2

Prompt: Now give it for COc1ccc2c(c1O[C@H]1CCNC1)CCC2 too.
Completion: -0.955

Prompt: Now give it for N[C@@H](CC(=O)Nc1ccc(Oc2cc(F)c(F)cc2Br)cc1)C(=O)O too.
Completion: -8.11
